Task for the reader: assign each of the following compounds its reported GI50.
Tested on: TK-10
Assay: Growth inhibition of human TK10 cells after 48 hrs by sulforhodamine B assay
Type: functional
Conditions: TK-10, 48 h
Numbers only, in µM.

CC(=O)/C(=C\c1c(-c2ccccc2)[nH]c2ccccc12)S(C)(=O)=O    13.5

# map each compound to its GI50
1. N#C/C(=C\c1c(-c2ccccc2)[nH]c2ccccc12)S(=O)(=O)c1ccccc1
2. COc1ccc(-c2[nH]c3ccccc3c2C=C(C#N)C#N)cc1
3. N#CC(C#N)=Cc1c(-c2ccccc2)[nH]c2ccccc12

Completion:
5.6
0.925
5.3

----------
Test system: CCRF-CEM
Experiment: Cytotoxicity against human CCRF-CEM cells after 96 hrs by MTT assay
Type: functional, cell-based
Task for the reader: assign each of the following molecules its reported pEC50.
Numbers only, as −log10 of the molar value.

Examples with answers:
CCOC(=O)/C(=C/c1c(-c2ccccc2)[nH]c2ccccc12)C(=O)c1ccccc1    5.10
O=C(/C(=C\c1c(-c2ccccc2)[nH]c2ccccc12)C(=O)C(F)(F)F)c1ccco1    5.72
COc1cccc2c1C(=O)c1c(O)c3c(c(O)c1C2=O)C[C@@](O)(C(=O)CO)C[C@@H]3O[C@H]1C[C@H](N)[C@H](O)[C@H](C)O1 [DOXORUBICIN]    7.70

Prompt: Form entry - test system: CCRF-CEM; read-out: pEC50; molecule: N#C/C(=C\c1c(-c2ccccc2)[nH]c2ccccc12)C(=O)c1ccc(Cl)cc1
Completion: 5.96
